Source of measurements: patent US8877161B2

# MEASUREMENT_TARGET: cholera toxin B subunit (CTB); ligand GD1b (Vibrio cholerae serotype O1)
# Sequence (P01556 22-124 limits assumed): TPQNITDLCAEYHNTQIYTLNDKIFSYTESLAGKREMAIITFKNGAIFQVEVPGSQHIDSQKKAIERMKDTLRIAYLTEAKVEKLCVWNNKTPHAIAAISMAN
# Type: binding
Where a SMILES comes first, the peptide text is derived from it.
MEASURED_METRIC: Inhibition percent at IC50 GM1: GD1b (%)

1. CC[C@H](C)[C@H](N)C(=O)N1CCC[C@H]1C(=O)N[C@@H](CCC(N)=O)C(=O)N[C@H](C(=O)N[C@@H](Cc1c[nH]c2ccccc12)C(=O)N[C@@H](CCCNC(=N)N)C(=O)N[C@@H](CC(=O)O)C(=O)N[C@@H](Cc1c[nH]c2ccccc12)C(=O)N[C@@H](Cc1ccccc1)C(=O)N[C@@H](CCCCN)C(=O)N[C@@H](CC(C)C)C(=O)N1CCC[C@H]1C(=O)O)C(C)C [PGM1-3, IPQVWRDWFKLP] (H-IPQVWRDWFKLP-OH)    37.9

* * *

# MEASUREMENT_TARGET: cholera toxin B subunit (CTB); ligand LOSGM1 (Vibrio cholerae serotype O1)
# Sequence (P01556 22-124 limits assumed): as above
# Format: binding
Where a SMILES comes first, the peptide text is derived from it.
MEASURED_METRIC: Inhibition percent at IC50 GM1: LOSGM1 (%)

1) CC[C@H](C)[C@H](N)C(=O)N1CCC[C@H]1C(=O)N[C@@H](CCC(N)=O)C(=O)N[C@H](C(=O)N[C@@H](Cc1c[nH]c2ccccc12)C(=O)N[C@@H](CCCNC(=N)N)C(=O)N[C@@H](CC(=O)O)C(=O)N[C@@H](Cc1c[nH]c2ccccc12)C(=O)N[C@@H](Cc1ccccc1)C(=O)N[C@@H](CCCCN)C(=O)N[C@@H](CC(C)C)C(=O)N1CCC[C@H]1C(=O)O)C(C)C [PGM1-3, IPQVWRDWFKLP] (H-IPQVWRDWFKLP-OH)    52.1
2) CC(C)C[C@H](NC(=O)[C@H](CCCCN)NC(=O)[C@@H](NC(=O)[C@H](Cc1ccccc1)NC(=O)[C@H](Cc1c[nH]c2ccccc12)NC(=O)[C@H](C)NC(=O)[C@@H]1CCCN1C(=O)[C@@H](N)Cc1ccccc1)[C@@H](C)O)C(=O)N[C@@H](Cc1ccc(O)cc1)C(=O)N1CCC[C@H]1C(=O)N[C@@H](CCCNC(=N)N)C(=O)N[C@H](C(=O)O)[C@@H](C)O [PGM1-4, FPAWFTKLYPRT] (H-FPAWFTKLYPRT-OH)    51.1
3) CC[C@H](C)[C@H](NC(=O)[C@@H](N)CCC(N)=O)C(=O)N[C@@H](CC(N)=O)C(=O)N[C@H](C(=O)N[C@@H](C)C(=O)N[C@@H](CCCCN)C(=O)N[C@@H](Cc1c[nH]c2ccccc12)C(=O)N[C@@H](Cc1c[nH]c2ccccc12)C(=O)N[C@@H](CCCCN)C(=O)N[C@H](C(=O)N[C@@H](Cc1c[nH]cn1)C(=O)N[C@@H](Cc1ccccc1)C(=O)O)[C@@H](C)O)[C@@H](C)O [PGM1-5, QINTAKWWKTHF] (H-QINTAKWWKTHF-OH)    50.0
4) CC(C)C[C@H](NC(=O)[C@H](CC(N)=O)NC(=O)[C@@H]1CCCN1C(=O)[C@H](Cc1ccccc1)NC(=O)[C@H](Cc1c[nH]c2ccccc12)NC(=O)[C@@H](NC(=O)[C@H](CCCCN)NC(=O)[C@H](Cc1c[nH]c2ccccc12)NC(=O)[C@H](CO)NC(=O)[C@@H](N)C(C)C)[C@@H](C)O)C(=O)N[C@@H](C)C(=O)N[C@H](C(=O)O)C(C)C [PGM1-1, VSWKTWFPNLAV] (H-VSWKTWFPNLAV-OH; N-terminus and C-terminus assumed)    50.8

* * *

Here, each record is paired with measured Inhibition percent at IC50AbGM1-1: GM1/AbGM1-1 data.
# Test system: rabbit anti-GM1 antibodies (AbGM1)
# Assay type: binding
# DETAILS: Table 5; peptide at its IC50 AbGM1-1; lot # 431A
Where a SMILES comes first, the peptide text is derived from it.
MEASURED_METRIC: Inhibition percent at IC50AbGM1-1: GM1/AbGM1-1 (%)

1. CC[C@H](C)[C@H](N)C(=O)N1CCC[C@H]1C(=O)N[C@@H](CCC(N)=O)C(=O)N[C@H](C(=O)N[C@@H](Cc1c[nH]c2ccccc12)C(=O)N[C@@H](CCCNC(=N)N)C(=O)N[C@@H](CC(=O)O)C(=O)N[C@@H](Cc1c[nH]c2ccccc12)C(=O)N[C@@H](Cc1ccccc1)C(=O)N[C@@H](CCCCN)C(=O)N[C@@H](CC(C)C)C(=O)N1CCC[C@H]1C(=O)O)C(C)C [PGM1-3, IPQVWRDWFKLP] (H-IPQVWRDWFKLP-OH)    50
2. CC(C)C[C@H](NC(=O)[C@H](CCCCN)NC(=O)[C@@H](NC(=O)[C@H](Cc1ccccc1)NC(=O)[C@H](Cc1c[nH]c2ccccc12)NC(=O)[C@H](C)NC(=O)[C@@H]1CCCN1C(=O)[C@@H](N)Cc1ccccc1)[C@@H](C)O)C(=O)N[C@@H](Cc1ccc(O)cc1)C(=O)N1CCC[C@H]1C(=O)N[C@@H](CCCNC(=N)N)C(=O)N[C@H](C(=O)O)[C@@H](C)O [PGM1-4, FPAWFTKLYPRT] (H-FPAWFTKLYPRT-OH)    50
3. CC[C@H](C)[C@H](NC(=O)[C@@H](N)CCC(N)=O)C(=O)N[C@@H](CC(N)=O)C(=O)N[C@H](C(=O)N[C@@H](C)C(=O)N[C@@H](CCCCN)C(=O)N[C@@H](Cc1c[nH]c2ccccc12)C(=O)N[C@@H](Cc1c[nH]c2ccccc12)C(=O)N[C@@H](CCCCN)C(=O)N[C@H](C(=O)N[C@@H](Cc1c[nH]cn1)C(=O)N[C@@H](Cc1ccccc1)C(=O)O)[C@@H](C)O)[C@@H](C)O [PGM1-5, QINTAKWWKTHF] (H-QINTAKWWKTHF-OH)    50

* * *

# Tested on: AbGM2 (GM2/AbGM2)
# Format: binding
# DETAILS: peptide at its IC50 AbGM1-1; lot # D710-2
Where a SMILES comes first, the peptide text is derived from it.
MEASURED_METRIC: Inhibition percent at IC50AbGM1-1: GM2/AbGM2 (%)

1) CC(C)C[C@H](NC(=O)[C@H](CC(N)=O)NC(=O)[C@@H]1CCCN1C(=O)[C@H](Cc1ccccc1)NC(=O)[C@H](Cc1c[nH]c2ccccc12)NC(=O)[C@@H](NC(=O)[C@H](CCCCN)NC(=O)[C@H](Cc1c[nH]c2ccccc12)NC(=O)[C@H](CO)NC(=O)[C@@H](N)C(C)C)[C@@H](C)O)C(=O)N[C@@H](C)C(=O)N[C@H](C(=O)O)C(C)C [PGM1-1, VSWKTWFPNLAV] (H-VSWKTWFPNLAV-OH; N-terminus and C-terminus assumed)    11.2
2) CC[C@H](C)[C@H](NC(=O)[C@@H](N)CCC(N)=O)C(=O)N[C@@H](CC(N)=O)C(=O)N[C@H](C(=O)N[C@@H](C)C(=O)N[C@@H](CCCCN)C(=O)N[C@@H](Cc1c[nH]c2ccccc12)C(=O)N[C@@H](Cc1c[nH]c2ccccc12)C(=O)N[C@@H](CCCCN)C(=O)N[C@H](C(=O)N[C@@H](Cc1c[nH]cn1)C(=O)N[C@@H](Cc1ccccc1)C(=O)O)[C@@H](C)O)[C@@H](C)O [PGM1-5, QINTAKWWKTHF] (H-QINTAKWWKTHF-OH)    6.5
3) CC(C)C[C@H](NC(=O)[C@H](CCCCN)NC(=O)[C@@H](NC(=O)[C@H](Cc1ccccc1)NC(=O)[C@H](Cc1c[nH]c2ccccc12)NC(=O)[C@H](C)NC(=O)[C@@H]1CCCN1C(=O)[C@@H](N)Cc1ccccc1)[C@@H](C)O)C(=O)N[C@@H](Cc1ccc(O)cc1)C(=O)N1CCC[C@H]1C(=O)N[C@@H](CCCNC(=N)N)C(=O)N[C@H](C(=O)O)[C@@H](C)O [PGM1-4, FPAWFTKLYPRT] (H-FPAWFTKLYPRT-OH)    0
4) CC[C@H](C)[C@H](N)C(=O)N1CCC[C@H]1C(=O)N[C@@H](CCC(N)=O)C(=O)N[C@H](C(=O)N[C@@H](Cc1c[nH]c2ccccc12)C(=O)N[C@@H](CCCNC(=N)N)C(=O)N[C@@H](CC(=O)O)C(=O)N[C@@H](Cc1c[nH]c2ccccc12)C(=O)N[C@@H](Cc1ccccc1)C(=O)N[C@@H](CCCCN)C(=O)N[C@@H](CC(C)C)C(=O)N1CCC[C@H]1C(=O)O)C(C)C [PGM1-3, IPQVWRDWFKLP] (H-IPQVWRDWFKLP-OH)    0

* * *

# MEASUREMENT_TARGET: cholera toxin B subunit (CTB); ligand GM1 (Vibrio cholerae serotype O1)
# Sequence (P01556 22-124 limits assumed): as above
# Assay type: binding
Where a SMILES comes first, the peptide text is derived from it.
Here, each record is paired with measured IC50 GM1 data.
MEASURED_METRIC: IC50 GM1 (nM)

1) CC[C@H](C)[C@H](NC(=O)[C@@H](N)CCC(N)=O)C(=O)N[C@@H](CC(N)=O)C(=O)N[C@H](C(=O)N[C@@H](C)C(=O)N[C@@H](CCCCN)C(=O)N[C@@H](Cc1c[nH]c2ccccc12)C(=O)N[C@@H](Cc1c[nH]c2ccccc12)C(=O)N[C@@H](CCCCN)C(=O)N[C@H](C(=O)N[C@@H](Cc1c[nH]cn1)C(=O)N[C@@H](Cc1ccccc1)C(=O)O)[C@@H](C)O)[C@@H](C)O [PGM1-5, QINTAKWWKTHF] (H-QINTAKWWKTHF-OH)    34.4
2) CC[C@H](C)[C@H](N)C(=O)N1CCC[C@H]1C(=O)N[C@@H](CCC(N)=O)C(=O)N[C@H](C(=O)N[C@@H](Cc1c[nH]c2ccccc12)C(=O)N[C@@H](CCCNC(=N)N)C(=O)N[C@@H](CC(=O)O)C(=O)N[C@@H](Cc1c[nH]c2ccccc12)C(=O)N[C@@H](Cc1ccccc1)C(=O)N[C@@H](CCCCN)C(=O)N[C@@H](CC(C)C)C(=O)N1CCC[C@H]1C(=O)O)C(C)C [PGM1-3, IPQVWRDWFKLP] (H-IPQVWRDWFKLP-OH)    9.6
3) CC(C)C[C@H](NC(=O)[C@H](CCCCN)NC(=O)[C@@H](NC(=O)[C@H](Cc1ccccc1)NC(=O)[C@H](Cc1c[nH]c2ccccc12)NC(=O)[C@H](C)NC(=O)[C@@H]1CCCN1C(=O)[C@@H](N)Cc1ccccc1)[C@@H](C)O)C(=O)N[C@@H](Cc1ccc(O)cc1)C(=O)N1CCC[C@H]1C(=O)N[C@@H](CCCNC(=N)N)C(=O)N[C@H](C(=O)O)[C@@H](C)O [PGM1-4, FPAWFTKLYPRT] (H-FPAWFTKLYPRT-OH)    77.4
4) CSCC[C@H](NC(=O)[C@H](CO)NC(=O)[C@@H]1CCCN1C(=O)[C@H](Cc1ccccc1)NC(=O)[C@H](Cc1c[nH]c2ccccc12)NC(=O)[C@H](CCCCN)NC(=O)[C@H](Cc1c[nH]cn1)NC(=O)[C@H](Cc1ccccc1)NC(=O)[C@@H]1CCCN1C(=O)[C@H](CO)NC(=O)[C@@H](N)Cc1ccc(O)cc1)C(=O)N[C@@H](Cc1c[nH]cn1)C(=O)O [PGM1-2, YSPFHKWFPSMH] (H-YSPFHKWFPSMH-OH; N-terminus and C-terminus assumed)    46.1
